Origin of measurements: paper PMC11252457

assay_comment: Cytotoxicity in mock-infected MT-4 cells
particulars: human
measurement_kind: CC50 at 5 days

Illustrative cases are given below, each with its answer.
Prompt: In one line, give reported CC50 at 5 days of the entry Cc1cc(/C=C/C#N)cc(C)c1Oc1nc(NC2CCN(Cc3ccc(P(=O)(OC(C)C)OC(C)C)cc3)CC2)nc2ccsc12 [15f] .
Completion: 4.45 µM

Prompt: In one line, give reported CC50 at 5 days of the entry CCCCOP(=O)(OCCCC)c1ccc(CN2CCC(Nc3nc(Oc4c(C)cc(/C=C/C#N)cc4C)c4sccc4n3)CC2)cc1 [15d] .
Completion: 12.2 µM

Prompt: In one line, give reported CC50 at 5 days of the entry Cc1cc(C#N)cc(C)c1Oc1nc(Nc2ccc(C#N)cc2)nc(N)c1Br [ETR, etravirine, reference compound] .
Completion: > 4.59 µM

# ---- query compound ----
Prompt: In one line, give reported CC50 at 5 days of the entry Cc1cc(C#N)cc(C)c1Oc1nc(NC2CCN(Cc3ccc(P(=O)(OCC(C)C)OCC(C)C)cc3)CC2)nc2ccsc12 [9h] .
Completion: 8.78 µM

====

System: HIV-1 double mutant strain F227L/V106A
assay_comment: microbe, parasite or virus in culture
Type: cell-based
particulars: Human immunodeficiency virus 1, MT4, read-out: EC50 F227L/V106A
measurement_kind: pEC50
Value format note: pEC50 is -log10 of concentration (mol/L); just state the number.

Illustrative cases are given below, each with its answer.
Prompt: In one line, give reported pEC50 of the entry Cc1cc(C#N)cc(C)c1Oc1nc(NC2CCN(Cc3ccc(P(=O)(OCC(F)(F)F)OCC(F)(F)F)cc3)CC2)nc2ccsc12 [9e] .
Completion: 7.19

Prompt: In one line, give reported pEC50 of the entry Cc1cc(/C=C/C#N)cc(C)c1Oc1nc(NC2CCN(Cc3ccc(P(=O)(O)O)cc3)CC2)nc2ccsc12 [compound 16] .
Completion: 4.36

Prompt: In one line, give reported pEC50 of the entry COP(=O)(OC)c1ccc(CN2CCC(Nc3nc(Oc4c(C)cc(C#N)cc4C)c4sccc4n3)CC2)cc1 [9b] .
Completion: 8.09

Further cases:
Prompt: In one line, give reported pEC50 of the entry Cc1cc(/C=C/C#N)cc(C)c1Oc1nc(NC2CCN(Cc3ccc(P(=O)(OCC(F)(F)F)OCC(F)(F)F)cc3)CC2)nc2ccsc12 [15e] .
Completion: 6.47

Prompt: In one line, give reported pEC50 of the entry COP(=O)(OC)c1ccc(CN2CCC(Nc3nc(Oc4c(C)cc(/C=C/C#N)cc4C)c4sccc4n3)CC2)cc1 [15b] .
Completion: 6.89

Prompt: In one line, give reported pEC50 of the entry Cc1cc(C#N)cc(C)c1Oc1nc(NC2CCN(Cc3ccc(P(=O)(OC(C)(C)C)OC(C)(C)C)cc3)CC2)nc2ccsc12 [9g] .
Completion: 6.20

Prompt: In one line, give reported pEC50 of the entry Cc1cc(C#N)cc(C)c1Oc1nc(NC2CCN(Cc3ccc(P(=O)(OC(C)C)OC(C)C)cc3)CC2)nc2ccsc12 [9f] .
Completion: 7.55

Prompt: In one line, give reported pEC50 of the entry Cc1cc(/C=C/C#N)cc(C)c1Oc1nc(NC2CCN(Cc3ccc(P(=O)(OC(C)(C)C)OC(C)(C)C)cc3)CC2)nc2ccsc12 [15g] .
Completion: 7.36
